AIRE transcriptional activation functional score: recorded values
B1: library; numbered along this chain (parent)
chain: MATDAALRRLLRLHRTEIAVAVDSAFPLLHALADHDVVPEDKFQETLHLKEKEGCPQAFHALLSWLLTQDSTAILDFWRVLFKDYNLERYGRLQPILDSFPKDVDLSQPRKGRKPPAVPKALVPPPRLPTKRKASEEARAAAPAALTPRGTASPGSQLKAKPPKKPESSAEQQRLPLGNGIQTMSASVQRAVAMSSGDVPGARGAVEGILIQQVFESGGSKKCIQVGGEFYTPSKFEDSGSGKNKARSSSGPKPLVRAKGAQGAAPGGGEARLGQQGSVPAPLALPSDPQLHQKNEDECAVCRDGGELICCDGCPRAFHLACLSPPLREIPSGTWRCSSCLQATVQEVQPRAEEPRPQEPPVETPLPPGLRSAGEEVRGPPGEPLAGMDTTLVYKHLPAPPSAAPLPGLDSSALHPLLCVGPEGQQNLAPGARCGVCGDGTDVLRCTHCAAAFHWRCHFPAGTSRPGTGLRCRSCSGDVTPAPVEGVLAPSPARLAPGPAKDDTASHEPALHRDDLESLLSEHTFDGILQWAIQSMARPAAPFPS

- Variants of: B1
- test_name: AIRE transcriptional activation functional score (insulin promoter-GFP; nonsense median 0, synonymous median 1) (normalised score); higher = higher AIRE activity (more reporter activation)
- conditions: with insulin promoter-GFP reporter in HEK293
Give only the figure.

Please review the following examples before continuing.
L67C
-0.405
E485Y
0.948
L529G
-0.203
Q276E
0.831
E375I
1.08

Now turn to the next variant.
Query: Name the reported AIRE transcriptional activation functional score value associated with the variant S196Q
Response: 1.11
